- STUDY TARGET: T1, recombinant human trimeric ARG2 enzyme (construct not given) (human, UniProt P78540 23-354)
- T1 sequence (looked up): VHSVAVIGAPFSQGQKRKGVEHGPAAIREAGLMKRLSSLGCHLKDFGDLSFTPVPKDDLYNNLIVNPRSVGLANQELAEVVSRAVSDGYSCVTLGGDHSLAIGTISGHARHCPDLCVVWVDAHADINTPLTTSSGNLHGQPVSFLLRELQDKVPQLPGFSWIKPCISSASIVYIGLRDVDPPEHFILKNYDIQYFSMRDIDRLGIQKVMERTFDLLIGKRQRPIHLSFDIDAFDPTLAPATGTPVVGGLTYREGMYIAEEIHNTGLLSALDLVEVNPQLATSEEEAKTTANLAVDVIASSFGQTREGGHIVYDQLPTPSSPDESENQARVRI
- METHOD DESCRIPTION: cell-based or functional assay
MEASURED PARAMETER: Trimeric human ARG2 EIA IC50 (nM)
Report the value in nM with no unit label.

# example entries with known answers
BINDER	RESULT UNITS	Trimeric human ARG2 EIA IC50
C0021021 scFv (scFv, V domains shown, scFv) VH: EVQLLESGGGLVQPGGSLRLSCAASGFTFSSYAMSWVRQAPGKGLEWVSSILFSPGSTYYADSVKGRFTISRDNSKNTLYLQMNSLRAEDTAVYYCARLRADLGLYMDLWGRGTLVTVSS VL: QSVLTQPPSVSAAPGQKVTISCSGSSSNIGNHYVSWYQQLPGTAPKLLIYDNSERPSGIPDRFSGSKSGTSATLGITGLQTGDEADYYCGTWDSSLSALVFGGGTKLTVL	nM	151
C0021133 scFv (scFv, V domains shown, scFv) VH: EVQLLESGGGLVQPGGSLRLSCAASGFTFRYDHHVWVRQAPGKGLEWVSAISGSGGSTYYADSVKGRFTISRDNSKNTLYLQMNSLRAEDTAVYYCARLRADLGLYMDLWGRGTLVTVSS VL: QSVLTQPPSVSAAPGQKVTVSCSGSSSNIGNHYVSWYQQLPGTAPKLLIYDTTVLSSGIPDRFSGSKSGTSATLGITGLQTGDEADYYCGTWDELTSNLVFGGGTKLTVL	nM	281
C0021124 scFv (scFv, V domains shown, scFv) VH: EVQLLESGGGLVQPGGSLRLSCAASGFTFSSYAMSWVRQAPGKGLEWVSAISYHPGSTYYADSVKGRFTISRDNSKNTLYLQINSLRAEDTAVYYCARLRADLGLYMDLWGRGTLVTVSS VL: QSVLTQLPSVSAAPGQKVTISCSGSSSNIGNHYVSWYQQLPGTAPKLLIYDNSERPSGIPDRFSGSKSGTSATLGITGLQTGDEADYYCGTWDSDRVNLEFGGGTKLTVL	nM	375
C0021022 scFv (scFv, V domains shown, scFv) VH: EVQLLESGGGLVQPGGSLRLSCAASGFTFSSYAMSWVRQAPGKGPEWVSAISGFSPYYADSVKGRFTISRDNSKNTLYLQMNSLRAEDTAVYYCARLRADLGLYMDLWGRGTLVTVSS VL: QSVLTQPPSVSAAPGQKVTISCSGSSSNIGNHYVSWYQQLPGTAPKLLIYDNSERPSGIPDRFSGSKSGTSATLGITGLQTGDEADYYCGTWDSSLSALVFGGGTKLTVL	nM	106

Prompt: Output measured Trimeric human ARG2 EIA IC50 for this item: C0021141 scFv (scFv, V domains shown, scFv) VH: EVQLLESGGGLVQPGGSLRLSCAASGFTFYPDPQGWVRQAPGKGLEWVSAYGYGIGSTYYADSVKGRFTISRDNSKNTLYLQMNSLRAEDTAVYYCARLRADLGLYMDLWGRGTLVTVSS VL: QSVLTQPPSVSAAPGQEVTISCSGSSSNIDNHYVSWYQQLPGTAPKLLIYDNSERPSGIPDRFSGSKSGTSATLGITGLQTGDEADYYCGTWDSSLSALVFGGGTKLTVL
Response: 109
